The measured values listed here are drawn from PubChem BioAssay AID1159580.

Here, each record is paired with measured normalized growth data.
- protocol_description: chemical genetic growth profiling, strain panel (AID 1159580);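 further: tested at 20 µM; growth read once vehicle control cultures reached saturation at 30 °C; 1 = growth at the plate median or of vehicle wells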
- condition_context: S. cerevisiae deletion strains, growth OD, locus YGR252W, strain gcn5, stronger effect = lower value
Out of some 5,500 compounds screened, about 2,000 (36%) were called active. Not shown: some 18% with an inconclusive outcome. The list shows a part of the results.

{"columns": ["molecule", "normalized growth"],
 "data": [
  ["Clc1ccc(CSC(Cn2ccnc2)c2ccc(Cl)cc2Cl)cc1 (stereo unspecified)", 0.112],
  ["CN[C@@H]1C(OC2[C@H](O[C@H]3[C@H](O)[C@@H](O)[C@H](N=C(N)N)[C@@H](O)[C@@H]3N=C(N)N)OC(C)[C@]2(O)CO)OC(CO)C(O)C1O (stereo partly specified)", 0.943],
  ["Fc1ccc([C@@H]2CCNC[C@H]2COc2ccc3c(c2)OCO3)cc1", 1.05],
  ["C=NC(C(=O)NC1C(=O)N2C1SC(C)(C)C2C(=O)O)c1ccccc1 (stereo unspecified)", 1.07],
  ["C1N2CN3CN1CN(C2)C3", 1.12],
  ["NCCCC(=O)O", 1.07],
  ["CC(C)/C(O)=C1/C(=O)O[C@@H](c2ccoc2)[C@]2(C)C(O)[C@@H](O)[C@@]34OC5(C)OC67CC(C)(C(O)[C@]6(O)[C@@H](O)[C@]3(O5)C12)[C@H](CC(=O)O)[C@]74C (stereo partly specified)", 0.988],
  ["Clc1ccc(COC(Cn2ccnc2)c2ccc(Cl)cc2Cl)cc1 (stereo unspecified)", 0.114],
  ["CC1[C@H](C)OC(=O)CC(O)CC(O)CC(O)CCC(O)C(O)C[C@]2(O)CC(O)C(C(=O)O)C(CC(OC3O[C@H](C)[C@@H](O)[C@H](N)[C@@H]3O)/C=C/C=C/C=C/C=C/CC/C=C/C=C/[C@H](C)[C@H]1O)O2 (stereo partly specified)", 0.385],
  ["NCCCCCC(=O)O", 0.907],
  ["FC(F)(F)c1cccc(N2CCNCC2)c1", 0.932],
  ["COC[C@]12CN(C=O)C3[C@@H]4[C@H](OC)C1[C@]3(C1CC3(O)C(OC)C(O)C4(OC(C)=O)C1C3OC(=O)c1ccccc1)[C@@H](OC)C[C@H]2O (stereo partly specified)", 1.02],
  ["c1ccc2c(CC3=NCCN3)cccc2c1", 0.984],
  ["COC(=O)[C@@H]1OC(=O)C2OC23[C@@]1(C)CCC1[C@]2(C)C(C[C@@H](O)[C@]13C)C(C)(C)[C@H](OC(C)=O)C[C@@H]2OC(C)=O (stereo partly specified)", 0.966],
  ["COC(=O)/C(C)=C\\CC12OC(C)(C)C3CC(C=C4C(=O)c5c(OC)c6c(c(CC=C(C)C)c5OC431)OC(C)(CCC=C(C)C)C=C6)C2=O (stereo unspecified)", 0.987],
  ["NC(N)=NCCN1CCCCCCC1", 0.994],
  ["CC(=O)OCC(=O)[C@@]1(O)CCC2C3CCC4=CC(=O)C=CC4(C)C3[C@@H](O)C[C@@]21C (stereo partly specified)", 1.05],
  ["NCCCCC(=O)O", 0.917],
  ["Cc1nnc(NS(=O)(=O)c2ccc(N)cc2)s1", 1.13],
  ["O=NN(CCCl)C(=O)NCCCl", 0.777],
  ["OC[C@H]1O[C@@H](n2cnc3c(NCc4ccco4)ncnc32)[C@H](O)[C@@H]1O", 0.971]
]}

----------
- protocol_description: chemical genetic growth profiling, strain panel (AID 1159580);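 further: tested at 20 µM; growth read once vehicle control cultures reached saturation at 30 °C; 1 = growth at the plate median or of vehicle wells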
- condition_context: S. cerevisiae deletion strains, growth OD, locus YLR418C, strain cdc73
Hit rate of the full screen: of about 5,500 compounds, about 2,000 (36%) were called active. About 18% were inconclusive and are not listed. No stated cut-off is given here; in the data, active means normalized growth mostly below about 0.91 (no sharp cut-off); inconclusive means no clear call, values can overlap the other calls; inactive means mostly above about 0.92. The list shows a part of the results.
Possible outcomes: y (active), n (inactive)

{"columns": ["compound", "class"],
 "data": [
  ["COc1ccc2c(c1)OCC(Cc1ccc(OC)c(OC(C)=O)c1)C2=O (stereo unspecified)", "n"],
  ["O=C(O)C1CCCNC1 (stereo unspecified)", "n"],
  ["NC(=O)NC1NC(=O)NC1=O (stereo unspecified)", "n"],
  ["c1ccc2c(CC3=NCCN3)cccc2c1", "n"],
  ["Cc1cc(CC(=O)O)n(C)c1C(=O)c1ccc(Cl)cc1", "n"],
  ["COC(=O)[C@@H]1OC(=O)C2OC23[C@@]1(C)CCC1[C@@]2(C)CCC(=O)C(C)(C)C2C[C@@H](OC(C)=O)[C@]13C (stereo partly specified)", "n"],
  ["COc1cc(OC)c2c(=O)cc(-c3ccccc3)oc2c1", "y"],
  ["NC1(C(=O)O)CCC1", "y"],
  ["O=C(O)CCC1NCC2CC1CN1CCCCC21 (stereo unspecified)", "n"],
  ["CCCCCCCCCCCC(=O)OCC(COP(=O)(O)OCC(O)COP(=O)(O)OCC(COC(=O)CCCCCCCCCCC)OC(=O)CCCCCCCCCCC)OC(=O)CCCCCCCCCCC (stereo unspecified)", "y"],
  ["NC1(C(=O)O)CCCC1", "n"],
  ["Clc1ccc(COC(Cn2ccnc2)c2ccc(Cl)cc2Cl)c(Cl)c1 (stereo unspecified)", "y"],
  ["Cc1cc(/C=C/c2ccc3cc(N(C)C)ccc3[n+]2C)c(C)n1-c1ccccc1", "y"],
  ["Cc1onc(-c2ccccc2)c1-c1ccc(S(N)(=O)=O)cc1", "n"],
  ["NC(N)=NCCCCN=C(N)N", "n"],
  ["Cc1oncc1C(=O)Nc1ccc(C(F)(F)F)cc1", "n"],
  ["CN=C(N)NCCCC(N)C(=O)O (stereo unspecified)", "n"],
  ["COc1c(C)c2c(c(O)c1C/C=C(\\C)CCC(=O)O)C(=O)OC2", "y"],
  ["CC(=O)O[C@]1(C)CC[C@@]23CC1C(C)(C)[C@@H]2CC[C@H]3C", "n"],
  ["O=C(O)COc1ccc(Cl)cc1Cl", "n"],
  ["NCCCNCCSP(=O)(O)O", "n"],
  ["C1N2CN3CN1CN(C2)C3", "n"],
  ["COc1ccc2c(c1)OCC(Cc1ccc(OC)c(O)c1)C2=O (stereo unspecified)", "y"],
  ["Cc1nnc(NS(=O)(=O)c2ccc(N)cc2)s1", "n"],
  ["NC1(C(=O)O)CC1", "n"],
  ["NCCCCNCCCN", "n"],
  ["CN1CCC[C@@H]1CCO[C@](C)(c1ccccc1)c1ccc(Cl)cc1", "y"],
  ["NC(N)=NCCN1CCCCCCC1", "n"],
  ["CN(C)C(=O)Oc1ccc[n+](C)c1", "n"],
  ["C[C@@H]1CC[C@H]2C(C)(C)C3CC12CC[C@@]3(C)O (stereo partly specified)", "y"],
  ["FC(F)(F)c1cccc(N2CCNCC2)c1", "n"]
]}

----------
- protocol_description: chemical genetic growth profiling, strain panel (AID 1159580);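 further: tested at 20 µM; growth read once vehicle control cultures reached saturation at 30 °C; 1 = growth at the plate median or of vehicle wells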
- condition_context: S. cerevisiae deletion strains, growth OD, locus YMR129W
The campaign covered roughly 5,500 compounds. About 2,000 (36%) were called active. Not shown: some 18% with an inconclusive outcome. Rule as the data show it: active = normalized growth mostly below about 0.91 (no sharp cut-off); inconclusive = no clear call, values can overlap the other calls; inactive = mostly above about 0.92. Some of the results follow.
Possible outcomes: Y (active), N (inactive)

{"columns": ["compound", "class"],
 "data": [
  ["Clc1ccc(C(Cn2ccnc2)OCc2ccsc2Cl)c(Cl)c1 (stereo not given)", "Y"],
  ["Cc1cc(/C=C/c2ccc3cc(N(C)C)ccc3[n+]2C)c(C)n1-c1ccccc1", "Y"],
  ["CCCn1c(=O)c2[nH]c(C3CCCC3)nc2n(CCC)c1=O", "N"],
  ["COC1C=CC23c4cc5c(cc4CN(CC2O)[C@@H]3C1)OCO5 (stereo not given in full)", "N"],
  ["COC(=O)[C@@H]1OC(=O)C2OC23[C@@]1(C)CCC1[C@]2(C)C(C[C@@H](O)[C@]13C)C(C)(C)[C@H](OC(C)=O)C[C@@H]2OC(C)=O (stereo not given in full)", "N"],
  ["O=C(O)COc1ccc(Cl)cc1Cl", "N"],
  ["Nc1nc(F)nc2c1ncn2[C@@H]1O[C@H](COP(=O)(O)O)[C@@H](O)[C@@H]1O", "N"],
  ["CCC(C)C(=O)c1c(O)c(C)c2oc3c(C)c(O)c(C(=O)C(C)CC)c(O)c3c2c1O (stereo not given)", "N"],
  ["Cc1nnc(NS(=O)(=O)c2ccc(N)cc2)s1", "N"],
  ["CCCCCCCCCCCCCC(=O)OC1C(C)C2(O)C(C=C(CO)CC3(O)C(=O)C(C)=CC32)C2C(C)(C)C12OC(C)=O (stereo not given)", "N"],
  ["C[C@H]1C[C@@H](O)[C@]2(O)[C@@]13CC(=O)OC[C@@]2(C)[C@](C)(O)C(=O)C3", "N"],
  ["C=C1C(=O)[C@]23[C@H](O)[C@H]1CC[C@H]2[C@@]12CO[C@]3(O)[C@H](O)[C@@H]1C(C)(C)CC[C@@H]2O", "N"],
  ["O=C(O)C1CCCNC1 (stereo not given)", "N"],
  ["NC(=O)NC1NC(=O)NC1=O (stereo not given)", "N"],
  ["CCN1C[C@@]2(COC)C3[C@@H](OC)[C@H]4[C@@H]1[C@]3(C(OC)C[C@H]2O)C1C[C@@]2(O)[C@H](OC(=O)c3ccccc3)C1[C@]4(OC(C)=O)[C@@H](O)[C@@H]2OC (stereo not given in full)", "N"],
  ["COc1cc(NS(C)(=O)=O)ccc1Cc1c2ccccc2nc2ccccc12", "N"],
  ["CC(C)=CC1C(C(=O)OCc2cccc(Oc3ccccc3)c2)C1(C)C (stereo not given)", "N"],
  ["CC(=O)N[C@@H](CCC(=O)O)C(=O)O", "N"],
  ["Cc1ccc(C(=O)c2ccc(CC(=O)O)n2C)cc1", "N"],
  ["Fc1ccc([C@@H]2CCNC[C@H]2COc2ccc3c(c2)OCO3)cc1", "N"]
]}
